condition.details: in cyclohexanone, 303.75 K
readout.name: solubility (mole fraction)
No unit in the answer, only the number.

**Query** What solubility (mole fraction) value was documented for this compound, NS(=O)(=O)c1ccccc1 ?
**Result** 0.161

* * *

condition.details: in isopropanol, 313.35 K
readout.name: solubility (mole fraction)

**Query** Endpoint output: solubility (mole fraction) of NS(=O)(=O)c1ccccc1 . Value?
**Result** 0.0305

* * *

condition.details: in ethyl formate, 323.15 K
readout.name: solubility (mole fraction)

**Query** Given the molecule NS(=O)(=O)c1ccccc1 , what is its reported solubility (mole fraction)?
**Result** 0.0596

* * *

condition.details: in cyclopentanone, 324.45 K
readout.name: solubility (mole fraction)
Please give the numeric answer without any surrounding text.

**Query** Dear colleague, I am looking for the recorded solubility (mole fraction) of the following compound: NS(=O)(=O)c1ccccc1
**Result** 0.245
